meta.source: ChEMBL document CHEMBL1955766

# system tested: Thymidylate kinase (Homo sapiens)
# Sequence (P23919 whole entry): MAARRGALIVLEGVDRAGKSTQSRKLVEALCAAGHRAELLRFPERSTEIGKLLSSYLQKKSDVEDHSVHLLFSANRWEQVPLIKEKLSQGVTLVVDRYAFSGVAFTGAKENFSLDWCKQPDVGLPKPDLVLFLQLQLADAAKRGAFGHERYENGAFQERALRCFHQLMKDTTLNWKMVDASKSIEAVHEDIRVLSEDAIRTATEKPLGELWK
pIC50: −log10 of the molar value.
In this section we review reported pIC50 values for a set of compounds.

{"molecule": "Cn1c(=O)[nH]c2ncc(-c3cccc(C(N)=O)c3)cc21", "qualifying sign": "<", "pIC50": 3.70}
{"molecule": "Cn1c(=O)[nH]c2ncc(-c3cccc(C(=O)NCCCc4ccc(C(F)(F)F)cc4)c3)cc21", "qualifying sign": "=", "pIC50": 3.91}
{"molecule": "Cn1c(=O)[nH]c2ncc(-c3cccc(C(=O)NCCCc4ccccc4)c3)cc21", "qualifying sign": "<", "pIC50": 3.70}
{"molecule": "Cn1c(=O)[nH]c2ncc(-c3ccccc3)cc21", "qualifying sign": "<", "pIC50": 3.70}
{"molecule": "Cn1c(=O)[nH]c2ncc(-c3cccc(C(=O)NCCCc4ccc(F)cc4)c3)cc21", "qualifying sign": "=", "pIC50": 3.91}
